test system: Botrytis cinerea; assay: Botrytis cinerea (gray mould), PDB microtiter plate, visual after 72 hrs; type: cell-based; settings: Botrytis cinerea, alone, rate 0.0625 ppm; read-out: Activity (%)
measured-metric: inhibition at 0.0625 ppm (%)
# number only, unit % dropped from output

Q: For the compound `CCN(C)/C=N/c1cc(Br)c(OC2Cc3ccccc3C2)nc1C` , give its reported inhibition at 0.0625 ppm.
Result: 0

Q: Consider the compound Cn1cc(C(=O)Nc2cccc3c2C2CCC3C2=C(Cl)Cl)c(C(F)F)n1 (stereo not shown) [(V), reference compound] and give its recorded inhibition at 0.0625 ppm.
Result: 70

Q: // fetch inhibition at 0.0625 ppm given entry CON(C(=O)c1cn(C)nc1C(F)F)C(C)Cc1c(Cl)cc(Cl)cc1Cl (stereo not shown) [(VI), reference compound]
Result: 70

Q: Read the entry `CCN(C)/C=N/c1cc(Br)c(O[C@H]2CC[C@@H](C(C)C)CC2)nc1C` and write its reported inhibition at 0.0625 ppm.
Result: 0

Q: Look up and report measured inhibition at 0.0625 ppm for this entry: CC(Cc1ccc(C(C)(C)C)cc1)CN1C[C@@H](C)O[C@@H](C)C1 (stereo partly shown)
Result: 0

Q: Output inhibition at 0.0625 ppm of CCN(C)/C=N/c1cc(Br)c(OC(C)c2cc(F)cc(F)c2)nc1C (stereo not shown)
Result: 0

Q: Please list inhibition at 0.0625 ppm recorded for the compound CCCC1COC(Cn2cncn2)(c2ccc(Cl)cc2Cl)O1 (stereo not shown)
Result: 0

Reference source for all entries: patent US9326513B2
